Data origin: the NIST ThermoML archive (doi:10.1021/je0302304)

# ASSAY_PROTOCOL: refractive index (Na D-line) (dimensionless); xn = mol fraction of the nth substance listed
# MEASUREMENT_SETUP: 308.15 K; 101.32 kPa; Liquid; Standard Abbe refractometry; x1 = 0.05
For each of the molecules below, state its refractive index.
Field format: numeric only.

Consider the molecule shown here: COCCOCCOCCOCCOC [2,5,8,11,14-pentaoxapentadecane] + CCO What is its recorded refractive index?
1.368

Fill in: refractive index of COCCOCCOC [2,5,8-trioxanonane] + CCO is ___
1.3606

Which refractive index value belongs to COCCOCCOCCOC [2,5,8,11-tetraoxadodecane] + CCO ?
1.3644

Recorded refractive index of COCCOC [1,2-dimethoxyethane] + CCO , please.
1.3566
